Collected Anti-CD28 Fab signal in the presence of CD28 values appear next to each entry.
# Test Target: Anti-CD28 Fab (SEQ ID NOs: 202, 203)
# Sequence (VH, as listed by the source, chain 1 of 2): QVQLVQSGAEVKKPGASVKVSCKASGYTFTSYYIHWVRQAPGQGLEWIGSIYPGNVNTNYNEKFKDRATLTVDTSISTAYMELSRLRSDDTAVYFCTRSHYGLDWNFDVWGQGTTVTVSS
# Sequence (VL, as listed by the source, chain 2 of 2): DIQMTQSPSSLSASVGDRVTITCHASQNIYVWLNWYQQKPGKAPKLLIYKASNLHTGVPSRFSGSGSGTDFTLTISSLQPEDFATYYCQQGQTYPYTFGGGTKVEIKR
# Assay: phage binding ELISA on captured Fab, competitor CD28 antigen;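 also: clonal phage supernatant binding in wells preincubated with CD28 antigen in blocking buffer, detected by HRP-conjugated anti-M13 antibody ELISA, compared with blocking buffer alone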
The reply should be a number, written without any unit.

Example cases with answers are listed next.
Binder: YCDGHIKEYMSKCL [Phage-799]
Assay Value: 0.08
--
Binder: YCAGHSAEYIQKCL [Phage-823]
Assay Value: 0.08
--
Binder: YCDGHLPEYMLKCL [Phage-780]
Assay Value: 0.09
--
Binder: YCEGHLPMYMQKCM [Phage-818]
Assay Value: 0.07
--
Binder: YCDGHSTEYMWKCL [Phage-874]
Assay Value: 0.06
--
Binder: YCEGHSRQYMEKCM [Phage-852]
Assay Value: 0.33

// sample YCDGHKWEYLQKCL [Phage-816] , its Anti-CD28 Fab signal in the presence of CD28 was 0.06

// sample YCDGHIMPYLDKCL [Phage-862] , its Anti-CD28 Fab signal in the presence of CD28 was 0.05

Taken from patent US20260274955A1.
